- Test system: TDF;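 also: TDF is a line of transformed human dermal fibroblasts of mesenchymal origin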
- MEASUREMENT PROTOCOL: H1.0 immunofluorescence intensity relative to DMSO (% of DMSO); higher = stronger H1.0 induction, active = 120 or more
- EXPERIMENTAL PARAMETERS: concentration: 10 µM; 24 h
Classify by measured H1.0 immunofluorescence intensity: Yes if it is equal to or exceeds 100, No if it is smaller.

{"columns": ["COMPOUND", "CLASS ASSIGNMENT"],
 "data": [
  ["CC(=O)C1CCC2C3CC=C4CC(O)CCC4(C)C3CCC12C (stereo unspecified)", "No"],
  ["Cc1cc(F)c(Nc2ncnc3cc(OCc4ccccc4)ccc23)cc1O.Cl", "No"],
  ["CCN(CC)CC(=O)Nc1c(C)cccc1C.Cl [Lidocaine hydrochloride]", "No"],
  ["CC(=O)CCCCn1c(=O)c2c(ncn2C)n(C)c1=O", "No"],
  ["COc1c(OCCCCN2CCN(C)CC2)cc(O)c2c(=O)cc(-c3ccccc3)oc12", "Yes"]
]}
